Please go through the items and note down their Ki.

-- ask // lookup Ki | system=Sodium-dependent dopamine transporter (Homo sapiens, UniProt Q01959) | key= FCCCc1ccccc1O[C@@H](c1ccccc1)[C@@H]1CNCCO1
-- reply > 6 µM

-- ask // lookup Ki | system=Sodium-dependent dopamine transporter (Homo sapiens, UniProt Q01959) | key= COc1ccccc1O[C@@H](c1ccccc1)[C@@H]1CNCCO1
-- reply > 2 µM

-- ask // lookup Ki | system=Sodium-dependent dopamine transporter (Homo sapiens, UniProt Q01959) | key= FCCc1ccccc1O[C@@H](c1ccccc1)[C@@H]1CNCCO1
-- reply > 6 µM

Sourced from ChEMBL document CHEMBL1139340
